Reference source for all entries: ChEMBL document CHEMBL3352401

Listing of recorded pEC50 by entry.
Tested on: Human poliovirus 1 strain Sabin
Test: Antiviral activity against Poliovirus 1 strain Sabin ATCC VR-1562 infected in Vero 76 cells after 2 days by plaque reduction assays
Type: functional, organism-based
Details: Enterovirus C, ATCC VR-1562, Vero 76, 48 h
pEC50: −log10 of the molar value.

Recorded pEC50, per entry:
Brc1cnc2[nH]c(-c3ccoc3)nc2c1: < 4.40
O=[N+]([O-])c1ccc(-c2nc3cc4cccnc4c(Cl)c3[nH]2)cc1: < 4.00
FC(F)(F)c1ccc(-c2nc3cccnc3[nH]2)cc1: < 4.00
Nc1c(/N=C/c2ccc(C(F)(F)F)c([N+](=O)[O-])c2)cc2cccnc2c1Cl: 4.66
N#Cc1ccc(-c2nc3cccnc3[nH]2)cc1: < 4.00

Fill in: pEC50 of `Nc1c(/N=C/c2ccc(C(F)(F)F)cc2)cc2cccnc2c1Cl` is ___
4.24
